B1: CPEB3 Ribozyme (parent)
chain: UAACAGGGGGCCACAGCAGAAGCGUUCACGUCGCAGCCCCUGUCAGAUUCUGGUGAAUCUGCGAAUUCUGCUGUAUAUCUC

variants of: B1; test: self-cleavage, relative activity (ratio to wild type); higher = more cleavage; in vitro, sequencing
assay.readout: self-cleavage
Answer using only a numeral; do not append any unit.

Known self-cleavage results, listed for orientation:
UAACAGGGGGCCACAGCAGAAGCGUUCACGUCGCAGCCCCUGGCAGAUUCUGGUGAAUCUGCGAAUUCUGCCGUAUAUCUC [U43G U72C] ... 0.33
UAACAGGGGGCCACAGCGGAAGCGUUCACGUCGCAGCCCCUGUCAGAUUCUGGUGAACCUGCGAAUUCUGCUGUAUAUCUC [A18G U58C] ... 0.28
UAACAGGGGGCCACAGCAGAAGCGUUCACGUCGCAGCCCCUGUCAGAUUCUGGUGAAUCAGCGAAUACUGCUGUAUAUCUC [U60A U67A] ... 0.42
UAACAGGGGGCCACAGCAGAAGCAUUCACGUCGCAGCCCCUGUCAGAUUCUGGUGAAUCUGCGUAUUCUGCUGUAUAUCUC [G24A A64U] ... 0.28

Write down self-cleavage measured for item UAACAGGGGGCCACAGCAGAAGCGUUCACGUCGCAGGCCCUGUCAGAUUCUGGUGAAUCUGCGAAUACUGCUGUAUAUCUC [C37G U67A] 0.48

Quickly give me recorded self-cleavage for UAACAGGGGGCCACUGCAGAAGCGUUCACGUCGCAGCCUCUGUCAGAUUCUGGUGAAUCUGCGAAUUCUGCUGUAUAUCUC [A15U C39U] 0.65

Give the value of self-cleavage reported for the following: UAACAGGGGGCCACAGCAGAAGCGUUCACGACGCAGCCCCUGUCAGAUUCUGGUGAAUCUGCGAAUUCUGCUGUAUUUCUC [U31A A77U] 0.51

Assign self-cleavage to the following record: UAACAGGGGGCCGCAGCAGAAGCGUUCACGUCGCAGCCCCUGUCAGAUUCUGGUGAAUCUGCGAAUUCUGCUGUUUAUCUC [A13G A75U] 0.99

Given the variant UAACAUGGGGCCACAGCAGAAGUGUUCACGUCGCAGCCCCUGUCAGAUUCUGGUGAAUCUGCGAAUUCUGCUGUAUAUCUC [G6U C23U] , write its reported self-cleavage. 0.25

Retrieve self-cleavage measured for UAACUGGGGGCCACAGCAGAAGCGUUCACGUCGCAGCCCCUGUCAGAUUCUGGUGAAUCUGCGUAUUCUGCUGUAUAUCUC [A5U A64U] and print it. 0.44

Read off the recorded self-cleavage for UAAUAGGGGGCCACAGCAGAAGCGUUCACGUCGCAGCCCCUGUCAGGUUCUGGUGAAUCUGCGAAUUCUGCUGUAUAUCUC [C4U A47G] 1.15

For the variant UAACAGGGGGCCACAGCAGAAGCGUUCACGUCGCAGCCCCUGUCAGUUUCUGGUGUAUCUGCGAAUUCUGCUGUAUAUCUC [A47U A56U] , give its reported self-cleavage. 0.33

Consider the variant UAACAGGGGGCCACAGCAGAAGCGUUCACGUCGCAGCCCCUGUCAGAUUCUGGUGAAUCUGCGAAUUCUGCUGAUUAUCUC [U74A A75U] and give its recorded self-cleavage. 1.29

Provide only the value of recorded self-cleavage for UAACAGGGGGCCACAGCAGAAGCGUUCACGUCGAGGCCCCUGUCAGAUUCUGGUGAAUCUGCGAAUUCUGCUGUAUAUCUC [C34A A35G] 1.07

Provide one value: measured self-cleavage of UAACAGGGGGGCACAGCAGAAGCGUUCACGUCGCAGCCCCUGCCAGAUUCUGGUGAAUCUGCGAAUUCUGCUGUAUAUCUC [C11G U43C] 0.29

Quote self-cleavage reported for UAACCGGGGGCCACAGCAGAAGCGUUCACGUCGCAGCCCCUGUCAUAUUCUGGUGAAUCUGCGAAUUCUGCUGUAUAUCUC [A5C G46U] please. 0.06

Give the measured self-cleavage for UAACAAGGGACCACAGCAGAAGCGUUCACGUCGCAGCCCCUGUCAGAUUCUGGUGAAUCUGCGAAUUCUGCUGUAUAUCUC [G6A G10A] 0.41

Complete the entry with self-cleavage for UAACAGGGGGCCACAGGAGAAGCGUUCACGUCGCAGCCCCUGUCAGAUUCUGGUGAAUCUGCGAAUUCUGCCGUAUAUCUC [C17G U72C] 0.31

Provide self-cleavage value for the following variant: UAACAGGGGGCCACAGCAGAAGCGUUCACGUCGCAGCCCCUGUCAGAUUCUGGUGAUUCUGCGAAUUCUGCUGUAUAACUC [A57U U78A] 1.21

Could you please provide reported self-cleavage for UAACAGGGGGCCACAUCAGAAGCGUUCGCGUCGCAGCCCCUGUCAGAUUCUGGUGAAUCUGCGAAUUCUGCUGUAUAUCUC [G16U A28G] ? Thanks! 0.18

Look up self-cleavage of UAACAGGGGGCCACAGCAGAAGCGUUCACGUCGCAGCCCCUGUCAGAUUCUGGUGAUUCUGCGAAUUCUGCUGUAUUUCUC [A57U A77U] and report it. 1.01

Item UAACAGGGGGCCACAGCAGCAGCGUUCACGUCGCAGCCCCUGUCAGAUUCAGGUGAAUCUGCGAAUUCUGCUGUAUAUCUC [A20C U51A] : provide self-cleavage 0.32

Given the variant UAACAGGGGGCCGCAGCAGAAGCGUUCACGUCGCAGCCCCUGUCAGAUUCUGGUGAAUCUGCGAAUUCUGCUGUAUCUCUC [A13G A77C] , write its reported self-cleavage. 0.62

Note down self-cleavage recorded for UAACAGGGGGCCACAGCAGAAGCGUUCGCGUCGCAGCCCCUGUCAGAUUCUGGGGAAUCUGCGAAUUCUGCUGUAUAUCUC [A28G U54G] 0.41

Output measured self-cleavage for this item: UAACAGGGGGCCACGGCAGAAGCGUUCACGUCGCAGCCCCUGUCAGAUUCUGGUGAAUCUGCGAAUUCAGCUGUAUAUCUC [A15G U69A] 0.35

Look up and state reported self-cleavage for UAACAGGGGGGCACAGCAGAAGCGUUCACGUCGCAGCCCCUGUCAGAUUCUGGUGAAUCUGCGAAUUCUGCUCUAUAUCUC [C11G G73C] 0.97

Return self-cleavage (reported value) for this variant: UAACAGGGGGCCACAGCAGAAGCGUUCACGUCGCAGCCCCUGUCAGAUUCUGGUGAAUCUGCGAAUUCUGCUAUGUAUCUC [G73A A75G] 1.19

// fetch self-cleavage given entry UAACAGGGGGCCACAGCAGAAGCGUUCACGUCGCAGCCCCUGUCAGAUUCUGGUGAAUCUGCUAAUUCUGCUGAAUAUCUC [G63U U74A] 1.29

Retrieve self-cleavage measured for UAACAGGGGGCCACAGCAGAAGCGUUCACGUCGCAGCCCCUGACAGAUUCUGGUGAAUCUGCGAAUUCUGCUGUACAUCUC [U43A U76C] and print it. 1.14

Tell me self-cleavage reported for UAACAGGGGGCCACAGCAGAAGCGUCCACGUCGCAGCCCCUGUCAGAUUCUGGUGAAUCUGCGAAUUCUGCUGUCUAUCUC [U26C A75C] 0.38

Identify the reported self-cleavage for the following entry. UAACAGGGGGCCACAGCAGAAGCGUUCACGUCGCAGCCCCUGUCAAAUUCUGGUGAAUCUGCGUAUUCUGCUGUAUAUCUC [G46A A64U] 0.08

Give recorded self-cleavage. UGACAGGGGGCCACAGCAGAAGCGUUCACGUCGCAGCCCCUGUCAGAUUCUGGUGAAUCUGCGAAUUCUGCUGUAUAUAUC [A2G C79A] 1.01

# return recorded self-cleavage for entry UAACAGGGGGCCACAGCAGAAGCGUUCACGUCGCAGCCCCUGUUAGAUUCUGGUGAAUCUGCGAAUUCUGCUGUUUAUCUC [C44U A75U] 0.31

Where do the numbers come from? From the RNAGym collection of RNA variant scans (doi:10.1093/nar/gkz1192).
